Source listed as ChEMBL document CHEMBL2331217.

# System: Rattus norvegicus
# measurementProtocol: Anti-stress activity in Sprague-Dawley rat assessed as change in acute stress-induced plasma corticosterone level at 40 mg/kg, po qd for 3 days prior to acute stress induction measured after 150 mins by HPLC/UV analysis (reference value: 511.2 +/- 23.2 ng/ml)
# Format: functional
Assignment: determine reported Activity for the given compounds.
Your answer should be a number followed by the unit of measure.

Sure, the documented Activity for COc1cc(OC)c2c(=O)c(O)c(-c3ccc(O[C@@H]4O[C@H](CO[C@@H]5O[C@@H](C)[C@H](O)[C@@H](O)[C@H]5O[C@@H]5O[C@H](CO)[C@@H](O)[C@H](O)[C@H]5O)[C@@H](O)[C@H](O)[C@H]4O)cc3)oc2c1 [EVOLVOSIDE E] is 252.6 ng/mL

Input O=c1c(O)c(-c2ccc(O[C@@H]3O[C@H](CO)[C@@H](O)[C@H](O)[C@H]3O[C@@H]3O[C@H](CO)[C@@H](O)[C@H](O)[C@H]3O)cc2)oc2cc(O)cc(O)c12 . Output Activity: 458.2 ng/mL

Record O=c1cc(-c2ccc(O)cc2)oc2c([C@@H]3O[C@H](CO)[C@@H](O)[C@H](O)[C@H]3O)c(O)cc(O)c12 . Reported Activity: 439 ng/mL

Lab book: Activity of C[C@@H]1O[C@@H](OC[C@H]2O[C@@H](Oc3ccc(-c4oc5cc(O)cc(O)c5c(=O)c4O)cc3)[C@H](O)[C@@H](O)[C@@H]2O)[C@H](O[C@@H]2O[C@H](CO)[C@@H](O)[C@H](O)[C@H]2O)[C@H](O)[C@H]1O [EVOLVOSIDE C] noted as 233.3 ng/mL

# Activity of C[C@@H]1O[C@@H](OC[C@H]2O[C@@H](Oc3ccc(-c4oc5cc(O)cc(O)c5c(=O)c4O)cc3)[C@H](O)[C@@H](O)[C@@H]2O)[C@H](O)[C@H](O)[C@H]1O = 239.2 ng/mL

Reported Activity ( COc1cc(O)c2c(=O)c(O)c(-c3ccc(O[C@@H]4O[C@H](CO[C@@H]5O[C@@H](C)[C@H](O)[C@@H](O)[C@H]5O[C@@H]5O[C@H](CO)[C@@H](O)[C@H](O)[C@H]5O)[C@@H](O)[C@H](O)[C@H]4O)cc3)oc2c1 [EVOLVOSIDE D] ) = 241.7 ng/mL
